- assayedSystem: SIK3 (Homo sapiens, UniProt Q9Y2K2)
- Construct: purchased SignalChem S12-11G-100
- Sequence (Q9Y2K2 59-365 limits assumed): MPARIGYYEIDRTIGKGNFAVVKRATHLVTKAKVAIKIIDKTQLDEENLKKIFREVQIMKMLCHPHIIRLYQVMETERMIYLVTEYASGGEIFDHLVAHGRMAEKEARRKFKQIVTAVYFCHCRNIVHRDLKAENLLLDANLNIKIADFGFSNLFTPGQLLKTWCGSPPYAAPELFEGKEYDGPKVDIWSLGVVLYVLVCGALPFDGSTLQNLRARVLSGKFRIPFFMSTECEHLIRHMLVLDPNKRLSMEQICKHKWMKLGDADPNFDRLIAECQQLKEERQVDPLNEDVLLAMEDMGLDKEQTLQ
- assay: ADP-Glo kinase assay, SIK3
- Type: biochemical
pIC50: −log10 of the molar value.
Entries annotated with measured pIC50

compound: COc1cc(-c2cnc3cc(C(C)N4CC(F)(F)C4)ccn23)cc(OC(F)F)c1C(=O)NC1CC1 (centres unmarked)
pIC50: 7.00 to 8.00
//
compound: COc1cc(-c2cnn3cc(C(C)(C)C#N)cnc23)cc(OC(F)F)c1C(=O)N[C@@H]1C[C@@H]1F
pIC50: 8.00 to 11.00
//
compound: COc1cc(-c2cnc3cc(C(C)(C)C#N)ccn23)cc(OC(F)F)c1C(=O)NCCCO
pIC50: 7.00 to 8.00
//
compound: COc1cc(-c2cnc3cc(C(C)(C)C#N)ccn23)cc(OC(F)F)c1C(=O)N[C@@H]1C[C@H]1F (racemic)
pIC50: 8.00 to 11.00
//
compound: COc1cc(-c2cnn3cc(C(C)(C)COCC4COC4)ccc23)cc(OC(F)F)c1C(=O)N[C@@H]1C[C@@H]1F
pIC50: 8.00 to 11.00
//
compound: COc1cc(-c2cnc3cc(C(C)(C)C(C)=O)ccn23)cc(OC)c1C(=O)NCC(F)(F)F
pIC50: 7.00 to 8.00
//
compound: COc1cc(-c2cnc3cc(C4(CN5CCOCC5)CC4)ccn23)cc(OC(F)F)c1C(=O)NC1CC1
pIC50: 6.30 to 7.00
//
compound: COc1cc(-c2cnc3cc(C4CN(C(=O)OC(C)(C)C)C4)ccn23)cc(OC)c1C(=O)NCC(F)(F)F
pIC50: 7.00 to 8.00
//
compound: COc1cc(-c2cnc3cc(C4CCCN(C(=O)OC(C)(C)C)C4)ccn23)cc(OC(F)F)c1C(=O)NC1CC1 (centres unmarked)
pIC50: 8.00 to 11.00
//
compound: COc1cc(-c2cnc3cc(C(C)(C)C#N)ccn23)cc(OC(F)F)c1C(=O)NC1(C(C)C)CC1
pIC50: < 6.30
//
compound: C#CC1(O)CN(C(=O)c2c(OC)cc(-c3cnc4cc(C(C)(C)C#N)ccn34)cc2OC(F)F)C1
pIC50: 7.00 to 8.00
//
compound: COc1cc(-c2cnc3cc(C(C)(C)C#N)ccn23)cc(OC(F)F)c1C(=O)N1CCC(F)(F)C1
pIC50: 7.00 to 8.00
//
compound: COc1cc(-c2cnc3cc(C4(O)COC4)ccn23)cc(OC(F)F)c1C(=O)NC1CC1
pIC50: 7.00 to 8.00
//
compound: COc1cc(-c2cnc3cc(C(O)C4CCC4)ccn23)cc(OC(F)F)c1C(=O)NC1CC1 (centres unmarked)
pIC50: 7.00 to 8.00
//
compound: COc1cc(-c2cnc3cc(C(C)NC(C)C)ccn23)cc(OC(F)F)c1C(=O)NC1CC1 (centres unmarked)
pIC50: 7.00 to 8.00
//
compound: COc1cc(-c2cnc3cc(C(C)(O)C(F)(F)F)ccn23)cc(OC(F)F)c1C(=O)NC1CC1 (centres unmarked)
pIC50: 7.00 to 8.00
//
compound: COc1cc(-c2cnc3cc(C(C)(C)C#N)ccn23)cc(OC(F)F)c1C(=O)N1CCOCC1
pIC50: < 6.30
//
compound: COc1cc(-c2cnc3cc(C(C)(C)C#N)ccn23)cc(OC)c1C(=O)NCC#N
pIC50: 7.00 to 8.00
//
compound: COc1cc(-c2cnc3cc(C(C)(C)C#N)ccn23)cc2c1C(=O)NC2
pIC50: 7.00 to 8.00
//
compound: COc1cc(-c2cnc3cc(C(C)(C)C#N)ccn23)cc(OC(F)F)c1C(=O)N[C@@H]1C[C@@H]1F
pIC50: 8.00 to 11.00
//
compound: COc1cc(-c2cnc3cc(C(C)(C)C(C)O)ccn23)cc(OC(F)F)c1C(=O)NC1CC1 (centres unmarked)
pIC50: 7.00 to 8.00
//
compound: CCC(C)(C#N)c1ccn2c(-c3cc(OC)c(C(=O)NC4CC4)c(OC(F)F)c3)cnc2c1 (centres unmarked)
pIC50: 7.00 to 8.00
//
compound: COc1cc(-c2cnc3cc(C(C)(C)CN4CCCC4)ccn23)cc(OC(F)F)c1C(=O)NC1CC1
pIC50: 7.00 to 8.00
//
compound: CCN(CC)CC(C)(C)c1ccc2c(-c3cc(OC)c(C(=O)N[C@@H]4C[C@@H]4F)c(OC(F)F)c3)cnn2c1
pIC50: 7.00 to 8.00
//
compound: COc1cc(-c2cnn3cc(C(C)(C)C(N)=O)ccc23)cc(OC(F)F)c1C(=O)NC1CC1
pIC50: 7.00 to 8.00
//
compound: COc1cc(-c2cnc3cc(C(C)(C)C#N)ccn23)cc(OC(F)F)c1C(=O)N1CC2(CN(C)C2)C1
pIC50: 6.30 to 7.00
//
compound: COc1cc(-c2cnc3cc(C(C)(C)C#N)ccn23)cc(OC(F)F)c1C(=O)N1CC(OC)C1
pIC50: 7.00 to 8.00
//
compound: COc1cc(-c2cnc3cc(C(C)(C)C#N)ccn23)cc(OC(F)F)c1C(=O)N1CC(CO)C1
pIC50: 7.00 to 8.00
//
compound: CCN(C)C(=O)c1c(OC)cc(-c2cnc3cc(C(C)(C)C#N)ccn23)cc1OC(F)F
pIC50: < 6.30
//
compound: COc1cc(-c2cnc3cc(C(C)(C)F)ccn23)cc(OC(F)F)c1C(=O)NC1CC1
pIC50: 7.00 to 8.00
//
compound: COCCN1CCCC1c1ccn2c(-c3cc(OC)c(C(=O)NC4CC4)c(OC(F)F)c3)cnc2c1 (centres unmarked)
pIC50: 7.00 to 8.00
//
compound: COc1cc(-c2cnc3cc(C(O)CC#N)ccn23)cc(OC(F)F)c1C(=O)NC1CC1 (centres unmarked)
pIC50: 7.00 to 8.00
